Molecular target: T1, human GIP receptor (human) (UniProt P48546)
T1 sequence (looked up): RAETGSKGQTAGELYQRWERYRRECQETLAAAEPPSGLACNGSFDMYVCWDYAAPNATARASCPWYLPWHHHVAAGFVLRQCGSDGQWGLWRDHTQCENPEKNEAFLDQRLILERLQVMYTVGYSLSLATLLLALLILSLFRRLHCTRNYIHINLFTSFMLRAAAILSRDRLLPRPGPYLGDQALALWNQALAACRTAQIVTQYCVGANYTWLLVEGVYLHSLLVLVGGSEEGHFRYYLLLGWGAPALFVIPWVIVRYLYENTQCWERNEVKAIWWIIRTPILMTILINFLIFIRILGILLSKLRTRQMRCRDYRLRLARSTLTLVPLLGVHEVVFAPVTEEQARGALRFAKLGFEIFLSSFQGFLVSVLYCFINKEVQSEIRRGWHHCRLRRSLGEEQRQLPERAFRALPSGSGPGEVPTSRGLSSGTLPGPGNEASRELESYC
Experiment: cell-based or functional assay
cAMP Rel EC50 (in the presence of 1% HSA) strictly under 6 nM means true; at 6 nM or over means false.

As a guide, the following entries are already answered.
binder="YXQGTFTSDXSKXLDKKAQXAFIEYLIEAGESSGEPPPSGS (non-natural residues, AEEA-γGlu-diacid acylated Lys, C-terminal amide; synthetic construct; SITE 2: note = 2-Aminoisobutyric Acid; SITE 10: note = 3-(4-Pyridyl)-L-alanine; SITE 13: note = alpha-methyl-leucine; SITE 17: note = Lysine is chemically modified through conjugation of the epsilon-amino group of the Lysine side chain with (2-[2-(2-Amino-ethoxy)-ethoxy]-acetyl)) [Example 284]" qualitative_label=false
binder="YXQGTXTSDXXILLDXKAQXXFIEYLIEGGPSSGEPPPEGEEE (non-natural residues; C18 diacid-(γGlu)2 on Lys; C-terminal amide; synthetic construct; SITE 2: note = 2-Aminoisobutyric Acid; SITE 6: note = alpha-methyl-2-fluoro-L-phenylalanine; SITE 10: note = 3-(4-Pyridyl)-L-alanine; SITE 11: note = alpha-methyl-L-serine; SITE 16: note = L-ornithine; SITE 17: note = Lysine is chemically modified through conjugation of the epsi) [Example 606]" qualitative_label=true
binder="YXQGTXTSDXSIXLDXKAQXEFIEXLLEGGPSSGEPPPSGS (non-natural residues; lipidated Lys; C-terminal amide; synthetic construct; SITE 2: note = 2-Aminoisobutyric Acid; SITE 6: note = alpha-methyl-2-fluoro-L-phenylalanine; SITE 10: note = 3-(4-Pyridyl)-L-alanine; SITE 13: note = alpha-methyl-leucine; SITE 16: note = L-ornithine; SITE 17: note = Lysine is chemically modified through conjugation of the epsil) [Example 645]" qualitative_label=true
binder="YXQGTXTSDXXIXLDXKAQXEFIEXLVEGGPSSGAPPPGGE (not fully specified; non-natural residues; AEEA-γGlu-C18 diacid on Lys; C-terminal amide; synthetic construct; SITE 2: note = 2-Aminoisobutyric Acid; SITE 6: note = alpha-methyl-2-fluoro-L-phenylalanine; SITE 10: note = 3-(4-Pyridyl)-L-alanine; SITE 11: note = alpha-methyl-L-serine; SITE 13: note = alpha-methyl-leucine; SITE 16: note = L-ornithine; SITE 17: note = Lysine is chemically mo) [Example 1154]" qualitative_label=true
binder="YXQGTFTSDFSKXLDKKAQXAFIQYLLAGGPSSGEPPPSEG (synthetic construct; SITE 2: note = 2-Aminoisobutyric Acid; SITE 13: note = alpha-methyl-leucine; SITE 17: note = Lysine is chemically modified through conjugation of the epsilon-amino group of the Lysine side chain with (2-[2-(2-Amino-ethoxy)-ethoxy]-acetyl)-(gamma-Glu)-CO-(CH2) 18-CO2H; SITE 20: n) [Example 27]" qualitative_label=false

Please indicate whether the reported cAMP Rel EC50 (in the presence of 1% HSA) of YXQGTFTSDFSKXLDKKAQXAFIEYLLAGGPSSGEPPPSEG (synthetic construct; SITE 2: note = 2-Aminoisobutyric Acid; SITE 13: note = alpha-methyl-leucine; SITE 17: note = Lysine is chemically modified through conjugation of the epsilon-amino group of the Lysine side chain with (2-[2-(2-Amino-ethoxy)-ethoxy]-acetyl)2-(gamma-Glu)-CO-(CH2 )16-CO2H; SITE 20:) [Example 25] is strictly below 6 nM.
false

Please indicate whether the reported cAMP Rel EC50 (in the presence of 1% HSA) of YXQGTFTSDFSKXLDKKAQXAFIEYLLEXGPSSGAPPPGGS (synthetic construct; SITE 2: note = 2-Aminoisobutyric Acid; SITE 13: note = alpha-methyl-leucine; SITE 17: note = Lysine is chemically modified through conjugation of the epsilon-amino group of the Lysine side chain with (2-[2-(2-Amino-ethoxy)-ethoxy]-acetyl)-(gamma-Glu)-CO-(CH2) 18-CO2H; SITE 20: n) [Example 43] is strictly below 6 nM.
false

Please indicate whether the reported cAMP Rel EC50 (in the presence of 1% HSA) of YXQGTFTSDFSXXLDKKAQXAFIEWLLEXGHSSGAPPPSGE (Aib, Orn, αMeL; K acylated with (AEEA)2-γGlu-C18 diacid; C-amide; synthetic construct; SITE 2: note = 2-Aminoisobutyric Acid; SITE 12: note = L-ornithine; SITE 13: note = alpha-methyl-leucine; SITE 17: note = Lysine is chemically modified through conjugation of the epsilon-amino group of the Lysine side chain with (2-[2-(2-Amino-ethoxy)-ethoxy]-acetyl)2-(gamma-Glu)) [Example 266] is strictly below 6 nM.
false
